molecular target: NET (Homo sapiens); assay: Uptake into HEK293 cells overexpressing NET (uptake ratio and concentration-dependent uptake); conditions: intrinsic clearance, quotient of vmax and Km
Sequence (P23975 whole entry): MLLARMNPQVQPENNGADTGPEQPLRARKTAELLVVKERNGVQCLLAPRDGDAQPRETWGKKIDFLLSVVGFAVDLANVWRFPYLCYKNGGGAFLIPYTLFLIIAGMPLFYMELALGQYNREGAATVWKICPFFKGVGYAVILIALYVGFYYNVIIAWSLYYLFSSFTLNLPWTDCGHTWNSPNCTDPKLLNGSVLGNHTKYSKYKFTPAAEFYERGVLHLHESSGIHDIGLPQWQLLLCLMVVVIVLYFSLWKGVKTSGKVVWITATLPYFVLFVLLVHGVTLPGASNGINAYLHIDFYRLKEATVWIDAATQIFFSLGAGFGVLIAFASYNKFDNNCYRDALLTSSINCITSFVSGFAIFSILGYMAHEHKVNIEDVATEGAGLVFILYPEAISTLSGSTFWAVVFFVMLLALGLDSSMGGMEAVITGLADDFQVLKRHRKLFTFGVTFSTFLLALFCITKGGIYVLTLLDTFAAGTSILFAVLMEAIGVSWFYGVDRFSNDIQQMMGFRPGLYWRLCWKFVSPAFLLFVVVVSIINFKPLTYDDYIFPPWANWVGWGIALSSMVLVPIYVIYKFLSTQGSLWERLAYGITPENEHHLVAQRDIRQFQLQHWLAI
property name: Clint ± SEM

Here is how some compounds turned out for Clint ± SEM.
Form field Clint ± SEM, entry NC[C@H](O)c1ccc(O)c(O)c1 [(-)-Norepinephrine] : 47.8 mL × g Protein^−1 × min^−1

Form field Clint ± SEM, entry `NCCc1ccccc1` : 3.4 mL × g Protein^−1 × min^−1

Form field Clint ± SEM, entry `NCCc1c[nH]c2ccc(O)cc12` : 18.83 mL × g Protein^−1 × min^−1

Next:
Form field Clint ± SEM, entry NC(N)=NCc1cccc(I)c1 [mIBG, meta-iodobenzylguanidine, reference compound] : 284 mL × g Protein^−1 × min^−1
